Target: AgSla1-D1-D2
Test: SPOT peptide array binding signal intensity (averaged, normalized) (arbitrary units (background-subtracted, floor 0; scale differs between SH3 domains)); higher = stronger binding of the SH3 domain to the peptide
measurement-kind: SPOT peptide array binding signal intensity
// no unit, no text: just the number

1. FTLPPPPPPPGLDEL :: 4
2. EEEEEHPPLPARRKS :: 4.5
3. NRLRKRLNLPSEISI :: 33
4. WRPRIVPILPYITRL :: 6.5
5. GATNNAPTLPKRKNP :: 7

// field: SPOT peptide array binding signal intensity; key: `FPGKKSPRLPHRNKK` ; value = 144

// field: SPOT peptide array binding signal intensity; key: `DRIRMFIRFPKFLLE` ; value = 236

// field: SPOT peptide array binding signal intensity; key: `TKIRRRPQQPLTDFT` ; value = 12.5

// field: SPOT peptide array binding signal intensity; key: `KKIRLIFTYPSTVGR` ; value = 428

// field: SPOT peptide array binding signal intensity; key: `RPVPRRPSQPLNTLS` ; value = 17

// field: SPOT peptide array binding signal intensity; key: `SSAAPPPPPRRATPE` ; value = 1

// field: SPOT peptide array binding signal intensity; key: `RRARRQMGIPTISQV` ; value = 99.5
